experimental_target: Monoamine transporters; Norepininephrine & dopamine (Rattus norvegicus) (UniProt P23977+Q9WTR4)
assay_name: Ratio of Ki for dopamine and norepinephrine transporters
Assay type: protein assay
A collection of compounds and their measured Selectivity
Just the number, please, no unit attached.

// known answers, use as guide
In [3]: df
Out[3]:
                                   compound  experimental_result
0  CN1C2CCC1C(C(=O)OCCCF)C(c1ccc(Br)cc1)C2 (centres undefined)                  128
1  O=C(OCCF)C1C2CCC(CC1c1ccc(Br)cc1)N2 (centres undefined)                 26.7
2  O=C(OCCCF)C1C2CCC(CC1c1ccc(Br)cc1)N2 (centres undefined)                 12.3
3  CN1C2CCC1C(C(=O)OCCF)C(c1ccc(I)cc1)C2 (centres undefined)                  125
4  CN1C2CCC1C(C(=O)OCCF)C(c1ccc(Br)cc1)C2 (centres undefined)                  120
5  COC(=O)C1C(c2ccc(Br)cc2)CC2CCC1N2CCCF (centres undefined)                 58.9

[in] I am curious: what Selectivity value has been reported for O=C(OCCF)C1C(c2ccc(Br)cc2)CC2CCC1N2CCCF (centres undefined) ?
[out] 0.19

[in] Reported Selectivity, compound COC(=O)C1C(c2ccc(Br)cc2)CC2CCC1N2C (centres undefined) : ____
[out] 0.02

* * *

As a worked illustration, we turn to pKi data collected for Sodium-dependent serotonin transporter (Rattus norvegicus, UniProt P31652).
To interpret pKi, take it as minus log10 of a concentration measured in moles per litre.

# example entries with known answers
>>> print(df.to_string())
                                   molecule                       experimental_target  assay_endpoint  experimental_result
0  CN1C2CCC1C(C(=O)OCCCF)C(c1ccc(Br)cc1)C2 (centres undefined)  Sodium-dependent serotonin transporter (Rattus norvegicus, UniProt P31652)             pKi                 8.54
1  CN1C2CCC1C(C(=O)NCCF)C(c1ccc(Br)cc1)C2 (centres undefined)  Sodium-dependent serotonin transporter (Rattus norvegicus, UniProt P31652)             pKi                 7.41
2  O=C(OCCF)C1C(c2ccc(Br)cc2)CC2CCC1N2CCCF (centres undefined)  Sodium-dependent serotonin transporter (Rattus norvegicus, UniProt P31652)             pKi                 7.74

[in] I would be grateful if you could share the reported pKi for O=C(OCCCF)C1C2CCC(CC1c1ccc(Br)cc1)N2 (centres undefined) .
[out] 9.52

* * *

Please consider the recorded pKi for Sodium-dependent dopamine transporter (Rattus norvegicus, UniProt P23977) in what follows.
Scale for pKi: -log10 of concentration given in mol/L; no unit attached.

>>> print(df.to_string())
                                   molecule  assay_endpoint  experimental_result
0  O=C(OCCCF)C1C2CCC(CC1c1ccc(Br)cc1)N2 (stereo unspecified)             pKi                 9.14
1  O=C(OCCF)C1C2CCC(CC1c1ccc(I)cc1)N2 (stereo unspecified)             pKi                 9.07

[in] Any idea what its pKi is? The molecule is O=C(OCCF)C1C2CCC(CC1c1ccc(Br)cc1)N2 (stereo unspecified)
[out] 9.24

[in] What value of pKi has been recorded for this entry: O=C(OCCF)C1C(c2ccc(Br)cc2)CC2CCC1N2CCCF (stereo unspecified)
[out] 7.97

[in] Name the reported pKi value associated with the molecule COC(=O)C1C(c2ccc(Br)cc2)CC2CCC1N2C (stereo unspecified)
[out] 9.52

[in] Item under review: COC(=O)C1C2CCC(CC1c1ccc(Br)cc1)N2 (stereo unspecified) . Reported pKi?
[out] 9.28

Taken from ChEMBL document CHEMBL1138631.
